test: Tolerance (DL50) in mice; conditions: mouse, in vivo
metricName: LD50 (mg/kg)

1) Fc1ccc(C(c2ccccc2)(c2ccccc2F)n2ccnc2)cc1 (stereo not shown) [UR-4056] ... 691

Values compiled from patent US5149707A.
